Molecular target: Ubiquitin-activating enzyme e1, putative (Leishmania donovani (strain BPK282A1))
Experiment: Leishmania donovani Ubiquitin Activating Enzyme (LdE1)
Format: functional
Set-up: scale not given: direction of the effect not stated beside the values
Conditions: 30 µM
Entries with a potency or affinity are not part of this list.
Would you kindly list Percent Effect for each of these compounds?
Just the number in %, nothing appended.

Item `Cc1nnc(N2CCC(CN(C)C(C)C)CC2)c(C#N)c1C` has what recorded Percent Effect?
2.6

Item CC(NCc1ccncc1)c1cc(F)ccc1N1CCN(C)CC1 (stereo unspecified) has what recorded Percent Effect?
5.41

Item CC1(C(=O)N2CCOCC2)CN(Cc2ccccc2F)CCO1 (stereo unspecified) has what recorded Percent Effect?
8

Item `CO[C@H]1CCN(c2ccc(C)nn2)[C@H]1Cc1cnn(C)c1` has what recorded Percent Effect?
2.7

Item `O=C1COc2cc(C(=O)NS(=O)(=O)c3ccccc3F)ccc2N1` has what recorded Percent Effect?
2.63

Item `COCCNC(=O)[C@H]1C[C@@H]2CCN(c3nncs3)C[C@H]2O1` has what recorded Percent Effect?
-8.11

Item COc1c(CNC2CCOc3ccccc32)c(C(C)C)nn1C (stereo unspecified) has what recorded Percent Effect?
-48.6

Item `CC(C)c1nnc2n1CCN(CC(=O)Nc1nncs1)C2` has what recorded Percent Effect?
13

Item Cc1cc(-c2cnn(CCNC(=O)C3CCCO3)c2C2CC2)on1 (stereo unspecified) has what recorded Percent Effect?
4.05

Item `CN(Cc1ccco1)[C@@H]1CN(C(=O)c2ccnnc2)[C@@H]2CCCO[C@H]12` has what recorded Percent Effect?
2.74

Item `C[C@@H]1CN(C(=O)c2ccc(C#N)nc2)CC[C@@]1(O)C1CCOCC1` has what recorded Percent Effect?
5.41

Attribution: ChEMBL document CHEMBL3988442
